Target entity: UniProt Q12866
Sequence (Q12866 whole entry): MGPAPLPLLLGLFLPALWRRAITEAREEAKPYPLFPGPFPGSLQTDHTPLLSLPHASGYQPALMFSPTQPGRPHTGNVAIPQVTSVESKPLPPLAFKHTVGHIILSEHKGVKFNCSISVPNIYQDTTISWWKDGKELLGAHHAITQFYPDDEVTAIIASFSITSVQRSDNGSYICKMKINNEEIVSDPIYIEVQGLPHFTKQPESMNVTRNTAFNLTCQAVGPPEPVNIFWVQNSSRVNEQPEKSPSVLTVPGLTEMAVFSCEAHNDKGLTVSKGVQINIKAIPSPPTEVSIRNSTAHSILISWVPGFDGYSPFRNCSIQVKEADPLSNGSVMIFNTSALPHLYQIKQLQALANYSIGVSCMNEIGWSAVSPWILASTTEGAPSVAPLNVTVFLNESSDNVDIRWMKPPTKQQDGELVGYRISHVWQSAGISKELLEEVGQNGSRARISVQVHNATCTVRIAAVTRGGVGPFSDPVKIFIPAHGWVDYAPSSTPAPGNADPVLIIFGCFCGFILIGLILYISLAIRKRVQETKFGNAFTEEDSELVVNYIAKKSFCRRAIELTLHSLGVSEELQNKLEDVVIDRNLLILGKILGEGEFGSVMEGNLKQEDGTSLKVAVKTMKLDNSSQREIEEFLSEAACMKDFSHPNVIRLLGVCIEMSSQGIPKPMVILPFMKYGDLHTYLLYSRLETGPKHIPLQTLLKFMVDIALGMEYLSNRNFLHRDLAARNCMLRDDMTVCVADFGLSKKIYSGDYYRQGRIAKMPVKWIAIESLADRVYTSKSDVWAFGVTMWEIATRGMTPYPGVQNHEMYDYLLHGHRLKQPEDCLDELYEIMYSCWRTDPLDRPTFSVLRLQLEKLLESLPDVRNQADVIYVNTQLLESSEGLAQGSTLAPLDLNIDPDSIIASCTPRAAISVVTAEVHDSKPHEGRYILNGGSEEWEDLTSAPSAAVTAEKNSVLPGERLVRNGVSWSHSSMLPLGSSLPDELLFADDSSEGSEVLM
Observable: pIC50
// field semantics: pIC50 = negative decimal log of concentration (mol/L)

Return reported pIC50; argument: `Cl.O=C1Nc2ccc(F)cc2/C1=C1/Nc2ccccc2/C1=N\OCCN1CCNCC1`
8.52
